In this section, each of the molecules is paired with its reported viability at 10 µM.
# procedureDetails: Cytotoxicity in HepG2 cells (MTT assay)
# Format: cell-based
# assayContext: human, read-out: viable cell %
resultType: viability at 10 µM (%)

[[record]]
substancesmiles = "CC(C)=CCc1c(-c2ccc(O)cc2O)oc2c([C@H]3C=C(C)C[C@@H](c4ccc(O)cc4O)[C@@H]3C(=O)c3ccc(O)cc3O)c(O)cc(O)c2c1=O"
measuredresult = 85

[[record]]
substancesmiles = "Cc1cc2c3c(c1)-c1c(O)cc(-c4cc5ccc(O)cc5o4)cc1O[C@@]3(c1ccc(O)cc1O)Oc1cc(O)ccc1-2"
measuredresult = 73

[[record]]
substancesmiles = "CC1=C[C@H]2c3c(O)cc(-c4cc5ccc(O)cc5o4)cc3O[C@@]3(c4ccc(O)cc4O)Oc4cc(O)ccc4[C@H](C1)[C@@H]23"
measuredresult = 36

